# Test System: biotinylated HCV core peptide 151-171 (Peptide 3) (HCV-1)
# Assay Method Text: EIA, captured mAb
Mark label 1 only when Reactivity (OD492) stays strictly below 0.1 OD. Values equal to the cut-off are label 0.

Solved entries (count: 4):
[
  {
    "Binder": "HCV 208B-589 (antibody, V domains shown) VH: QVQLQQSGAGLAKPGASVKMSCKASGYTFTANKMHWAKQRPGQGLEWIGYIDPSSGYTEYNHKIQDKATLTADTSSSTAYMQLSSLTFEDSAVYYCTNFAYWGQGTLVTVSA VL: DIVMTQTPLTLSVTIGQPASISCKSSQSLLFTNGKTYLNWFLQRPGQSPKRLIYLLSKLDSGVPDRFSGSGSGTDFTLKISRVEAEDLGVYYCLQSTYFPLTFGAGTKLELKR",
    "Label Class": "label 0"
  },
  {
    "Binder": "HCV 208A-605 (antibody, V domains shown) VH: EVQLQQSGPELEKPGASVKISCKTSGYTFTEYAIHWVKQSHGMSLEWIGGINPSNGNAIYNQIFKDKATLTVDRSSSTAYMGLRSLTFGDSGVYFCVRRQLDFFDYWGQGASLTVSS VL: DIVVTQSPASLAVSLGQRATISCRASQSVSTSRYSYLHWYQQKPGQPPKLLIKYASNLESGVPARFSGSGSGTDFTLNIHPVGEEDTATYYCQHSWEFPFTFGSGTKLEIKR",
    "Label Class": "label 0"
  },
  {
    "Binder": "HCV 208B-1094 (antibody, V domains shown) VH: EVQLQQSGPELVKPGASVKISCKTSGYTFTEYAMHWMKQSHGKSLEWIGGINPTNGDTIYNQRFKDKAKLTVDRSSSTAYMELRSLTSDDSALFYCARRELDYFASWGQGTTLTVSS VL: DIVLTQSPASLIVSLGQTATISCRASQSLSTSRFSYVHWIQQKPGQPPKLLIKYASNLESGVPVRFSGSGSGTDFTLNIHPVEEEDTATYFCQHSWEFPFTFGSGTKLKIKR",
    "Label Class": "label 0"
  },
  {
    "Binder": "HCV 208A-442 (antibody, V domains shown) VH: DVQLQESGPGLVNPSQSLSLTCSVTGYSITSGYYWIWIRQFPGNKLEWMGYIKYDGGNNYSPSLKNRISIARDTSKNQFFLKLNSVTIEDTATYYCTRGSDSFDYWGQGTTLTVSS VL: DIVLTQSPASLAVSLGQRAIISCKASQSVSFAGTNLMHWYQQKPGQQPKLLIYRASNLETGVPTRFSGSGSRTDFTLNIHPVEEDDAATYYCQQSREYYTFGGGTKLEIKR",
    "Label Class": "label 1"
  }
]

Turning to the following binder.
Please determine if HCV 208B-612 (antibody, V domains shown) VH: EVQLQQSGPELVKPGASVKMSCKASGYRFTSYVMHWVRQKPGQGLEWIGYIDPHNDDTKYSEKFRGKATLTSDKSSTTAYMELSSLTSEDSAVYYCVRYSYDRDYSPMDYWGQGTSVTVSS VL: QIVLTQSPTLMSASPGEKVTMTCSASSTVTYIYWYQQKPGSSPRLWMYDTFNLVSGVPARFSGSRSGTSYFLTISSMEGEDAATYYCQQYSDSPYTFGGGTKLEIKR is below 0.1 OD in terms of Reactivity (OD492). label 0
